Attribution: patent US10689357B2

# test target: hNAAA (Homo sapiens (Human), UniProt Q02083)
# Sequence (Q02083 29-125): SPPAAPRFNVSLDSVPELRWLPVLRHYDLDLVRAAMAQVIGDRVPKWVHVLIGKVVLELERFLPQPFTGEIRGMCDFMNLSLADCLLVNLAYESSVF
# Sequence (Q02083 126-359): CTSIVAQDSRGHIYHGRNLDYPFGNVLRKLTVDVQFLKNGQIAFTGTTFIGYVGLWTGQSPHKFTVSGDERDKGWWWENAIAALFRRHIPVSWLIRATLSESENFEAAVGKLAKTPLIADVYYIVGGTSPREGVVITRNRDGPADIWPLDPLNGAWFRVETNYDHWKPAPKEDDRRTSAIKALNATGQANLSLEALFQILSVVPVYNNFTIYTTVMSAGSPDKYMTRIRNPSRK
# experiment notes: NAAA fluorescence-based inhibition assay with PAMCA substrate
# stated conditions: purified activated hNAAA, PAMCA 5 μM, pH 4.5, 37° C.
Measured IC50 accompanies every entry in the list below.
reported metric: IC50

>>> print(df.to_string())
                                    compound  endpoint_value
 0  COc1ccc(-c2ccc(C(C)O[C@H]3C[C@@H](N=C=S)C3)nc2)cc1 (some centres unmarked)    10 to 100 nM
 1  COc1cccc(-c2ccc(C(=O)O[C@H]3C[C@@H](N=C=S)C3)cc2)c1    10 to 100 nM
 2  COc1ccc2cc(C(=O)N[C@H]3C[C@@H](N=C=S)C3)ccc2c1       > 1000 nM
 3  N#Cc1ccc(-c2ccc(C(=O)N[C@H]3C[C@@H](N=C=S)C3)nc2)cc1  110 to 1000 nM
 4  COc1ccc(/C=C/C(=O)N[C@H]2C[C@@H](N=C=S)C2)cc1       > 1000 nM
 5  COc1ccc(-c2cnc(C(=O)N[C@H]3C[C@@H](N=C=S)C3)c(N3CCC3)c2)cc1  110 to 1000 nM
 6  COc1ccc(-c2ccc(C(=O)N[C@H]3C[C@@H](N=C=S)C3)c(F)c2)cc1    10 to 100 nM
 7  O=C(N[C@H]1C[C@@H](N=C=S)C1)c1ccc(Oc2cccnc2)cc1  110 to 1000 nM
 8  COc1ccc(-c2ccc(OC(=O)N[C@H]3C[C@@H](N=C=S)C3)cc2)cc1    10 to 100 nM
 9  O=C(N[C@H]1C[C@@H](N=C=S)C1)c1ccc(N2CCOCC2)cc1       > 1000 nM
10  COc1ccc(-c2ccc(C(=O)N[C@H]3C[C@@H](N=C=S)C3)c(F)c2)cc1F    10 to 100 nM
11  COc1ccc([C@H]2C[C@@H](C(=O)N[C@H]3C[C@@H](N=C=S)C3)C2)cc1    10 to 100 nM
12  COc1ccc(Nc2ccc(C(=O)N[C@H]3C[C@@H](N=C=S)C3)nc2)cc1       > 1000 nM
13  COc1ccc(-c2ccc(CO[C@H]3C[C@@H](N=C=S)C3)nc2)nc1    10 to 100 nM
14  COc1ccc(-c2ccc(C(=O)N[C@H]3C[C@@H](N=C=S)C3)nc2)cc1    10 to 100 nM
15  COc1ccc(-c2ccc(S(=O)(=O)N[C@H]3C[C@@H](N=C=S)C3)nc2)cc1    10 to 100 nM
16  COc1ccc(-c2ccc(S(=O)(=O)O[C@H]3C[C@@H](N=C=S)C3)cc2)cc1    10 to 100 nM
